Test target: PPARα (Homo sapiens, UniProt Q07869)
Protocol text: Cross-curve PPAR transactivation test (PPARα)
Setup conditions: HeLN cells, Gal-hPPARα, luciferase reporter; cross curves against reference agonist, Schild regression; n.a means not active; read-out: PPAR alpha Kd app
pKd: −log10 of the molar value.
Observable: pKd

Some entries whose results are on file:
{"Compound": "CCCCCCCNC(=O)N(C)c1cccc(-c2ccc(CCC(=O)O)cc2OCCCCC)c1 [Example 45]", "Recorded number": 6.92}
{"Compound": "CCCCCNC(=O)N(C)c1cccc(-c2ccc(CCC(=O)O)cc2OCCOCC)c1 [Example 49]", "Recorded number": 5.70}
{"Compound": "CCCCCNC(=O)N(C)c1cccc(-c2ccc(CCC(=O)O)cc2OCCCC)c1 [Example 41]", "Recorded number": 7.22}

a: CCCCOc1ccc(NC(=O)N(CC)c2cccc(-c3ccc(CCC(=O)O)cc3)c2)cc1 [Example 34]
b: CCCCCNC(=O)N(C)c1cccc(-c2ccc(CCC(=O)O)cc2OCCCCC)c1 [Example 46]
For the pair a and b , which entry has the numerically smaller recorded pKd? Please respond with the label that marks your chosen entry.
a

---

Test target: PPARα (Homo sapiens, UniProt Q07869)
Sequence (Q07869 202-468 limits assumed): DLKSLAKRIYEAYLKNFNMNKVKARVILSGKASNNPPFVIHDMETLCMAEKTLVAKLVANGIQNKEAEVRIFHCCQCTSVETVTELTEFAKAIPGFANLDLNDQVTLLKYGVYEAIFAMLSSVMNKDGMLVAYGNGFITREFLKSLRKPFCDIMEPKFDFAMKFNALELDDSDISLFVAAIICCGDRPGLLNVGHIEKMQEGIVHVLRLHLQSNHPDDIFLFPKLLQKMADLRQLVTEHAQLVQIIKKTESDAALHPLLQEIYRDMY
Protocol text: Cross-curve PPAR transactivation test (PPARα)
Setup conditions: HeLN cells, Gal-hPPARα, luciferase reporter; cross curves against reference agonist, Schild regression; n.a means not active; read-out: PPAR alpha Kd app
Observable: Kd (nM)

{"Given smiles": "CCCCCCCNC(=O)N(C)c1cccc(-c2ccc(CCC(=O)O)cc2OCCC(C)C)c1", "Kd [nM]": 1000}

P: CCCCCCCNC(=O)N(C)c1cccc(-c2ccc(CCC(=O)O)cc2OCCOCC)c1
Q: CCCCCCCNC(=O)N(C)c1cccc(-c2ccc(CCC(=O)O)cc2OCCC(F)(F)F)c1
R: CCCCCCCNC(=O)N(C)c1cccc(-c2ccc(CCC(=O)O)cc2OCCCCO)c1
S: CCCCCCCNC(=O)N(C)c1cccc(-c2ccc(CCC(=O)O)cc2OCCOC)c1
T: CCCCCCCNC(=O)N(C)c1cccc(-c2ccc(CCC(=O)O)cc2OCCC)c1
Rank by Kd (largest to smallest). The labels, placed in the requested order, form the answer.
R, S, P, T, Q
(R: 8000 nM, S: 2000 nM, P: 1000 nM, T: 500 nM, Q: 250 nM)

---

Test target: PPARγ (Homo sapiens, UniProt P37231)
Sequence (P37231 238-505 limits assumed): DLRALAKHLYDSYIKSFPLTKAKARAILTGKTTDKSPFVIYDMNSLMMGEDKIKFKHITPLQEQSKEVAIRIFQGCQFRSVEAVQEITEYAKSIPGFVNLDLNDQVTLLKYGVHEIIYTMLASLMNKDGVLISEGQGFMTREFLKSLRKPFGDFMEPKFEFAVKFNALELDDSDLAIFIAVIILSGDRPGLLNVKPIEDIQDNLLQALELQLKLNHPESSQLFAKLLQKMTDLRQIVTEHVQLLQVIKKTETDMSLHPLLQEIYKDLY
Protocol text: Cross-curve PPAR transactivation test (PPARγ)
Setup conditions: HeLN cells, Gal-hPPARγ, luciferase reporter; cross curves against reference agonist, Schild regression; n.a means not active; read-out: PPAR gamma Kd app
Description: The activation of PPAR receptors with an agonist (activator) in HeLN cells leads to the expression of a reporter gene, luciferase, which, in the presence of a substrate, generates light. The modulation of the PPAR receptors is measured by quantifying the luminescence produced after incubating the cells in the presence of a reference agonist. The ligands displace the agonist from its site. The measurement of the activity is performed by quantifying the light produced. […]
Observable: Kd (nM)

Some entries whose results are on file:
{"Compound": "CCCCCCCNC(=O)N(C)c1cccc(-c2ccc(CCC(=O)O)cc2OCCCCl)c1 [Example 17]", "Observable": "Kd", "Unit label": "nM", "Recorded number": 1}
{"Compound": "CCCCc1ccc(NC(=O)N(C)c2cccc(-c3ccc(CCC(=O)O)cc3)c2)cc1 [Example 14]", "Observable": "Kd", "Unit label": "nM", "Recorded number": 2}
{"Compound": "CCCCCCCNC(=O)N(C)c1cccc(-c2ccc(CCC(=O)O)cc2OCCOC)c1 [Example 15]", "Observable": "Kd", "Unit label": "nM", "Recorded number": 2}
{"Compound": "CCCCOc1ccc(NC(=O)N(CC)c2cccc(-c3ccc(CCC(=O)O)cc3)c2)cc1 [Example 34]", "Observable": "Kd", "Unit label": "nM", "Recorded number": 2}
{"Compound": "CCCCCCCNC(=O)N(C)c1cccc(-c2ccc(CCC(=O)O)cc2OCCC(F)(F)F)c1 [Example 37]", "Observable": "Kd", "Unit label": "nM", "Recorded number": 2}

I: CCCCCNC(=O)N(C)c1cccc(-c2ccc(CCC(=O)O)cc2OCCCCC)c1 [Example 46]
II: CN(C(=O)Nc1ccc(OCc2ccccc2)cc1)c1cccc(-c2ccc(CCC(=O)O)cc2)c1 [Example 13]
For the pair I and II , which entry has the numerically smaller recorded Kd? Please respond with the label that marks your chosen entry.
I
(I: 0.25 nM, II: 2 nM)

P: CCCCCCCNC(=O)N(C)c1cccc(-c2ccc(CCC(=O)O)cc2OCCCCC)c1 [Example 45]
Q: CCCCCCCNC(=O)N(C)c1cccc(-c2ccc(CCC(=O)O)cc2OCCC(C)C)c1 [Example 16]
R: CCCCCCCNC(=O)N(C)c1cccc(-c2ccc(/C=C/C(=O)O)cc2OCc2ccccc2)c1 [Example 24]
S: CCCCCCCNC(=O)N(C)c1cccc(-c2ccc(CCC(=O)O)cc2OCc2cccc(F)c2)c1 [Example 43]
Rank by Kd (largest to smallest). The labels, placed in the requested order, form the answer.
R, S, Q, P

I: CCCCCCCNC(=O)N(C)c1cccc(-c2ccc(CCC(=O)O)cc2OCCCC)c1 [Example 26]
II: CCCCCNC(=O)N(C)c1cccc(-c2ccc(CCC(=O)O)cc2OCCOCC)c1 [Example 49]
Return label of the item with the larger Kd. Candidates: I , II . Please respond with the label that marks your chosen entry.
II
(II: 2 nM, I: 0.25 nM)

A: CCCCCCCNC(=O)N(C)c1cccc(-c2ccc(CCC(=O)O)cc2OCC2CC2)c1 [Example 35]
B: CCCCCCCNC(=O)N(C)c1cccc(-c2ccc(CCC(=O)O)cc2OC)c1 [Example 18]
Return label of the item with the larger Kd. Candidates: A , B . Please respond with the label that marks your chosen entry.
B
